Target: Calmodulin-sensitive adenylate cyclase (Bacillus anthracis, UniProt P40136)
Sequence (P40136 whole entry): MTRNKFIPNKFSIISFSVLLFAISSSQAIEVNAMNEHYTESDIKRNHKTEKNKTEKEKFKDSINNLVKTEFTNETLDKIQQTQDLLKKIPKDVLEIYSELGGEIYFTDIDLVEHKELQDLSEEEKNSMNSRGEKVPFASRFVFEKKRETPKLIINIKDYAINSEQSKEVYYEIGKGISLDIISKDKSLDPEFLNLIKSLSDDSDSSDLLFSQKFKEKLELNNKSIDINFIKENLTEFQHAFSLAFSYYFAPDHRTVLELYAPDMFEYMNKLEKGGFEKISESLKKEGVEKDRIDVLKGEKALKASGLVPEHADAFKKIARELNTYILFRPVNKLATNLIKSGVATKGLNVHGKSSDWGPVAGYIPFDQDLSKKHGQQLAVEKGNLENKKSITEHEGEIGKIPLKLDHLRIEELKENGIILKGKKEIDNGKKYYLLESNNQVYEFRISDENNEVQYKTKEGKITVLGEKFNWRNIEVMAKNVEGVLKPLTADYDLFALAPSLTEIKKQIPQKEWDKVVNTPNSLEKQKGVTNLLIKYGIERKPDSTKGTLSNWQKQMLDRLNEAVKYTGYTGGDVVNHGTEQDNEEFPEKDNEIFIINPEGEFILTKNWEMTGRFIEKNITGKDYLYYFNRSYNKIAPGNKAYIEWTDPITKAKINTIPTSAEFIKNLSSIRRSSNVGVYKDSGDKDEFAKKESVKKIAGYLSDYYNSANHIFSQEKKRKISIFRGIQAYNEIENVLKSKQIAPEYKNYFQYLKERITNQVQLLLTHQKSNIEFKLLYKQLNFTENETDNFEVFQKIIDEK
pIC50: −log10 of the molar value.
Overview of recorded pIC50 for various compounds

CHEMICAL STRING	QUAL	pIC50
COC(=O)c1cccc(NC(=O)c2cccc3c2C(=O)c2ccccc2-3)c1	=	4.96
CSc1cccc(NC(=O)c2cccc3c2C(=O)c2ccccc2-3)c1	=	4.58
O=C(O)c1cccc(NC(=O)c2ccccc2)c1	<	4.00
Nc1ccc(NC(=O)c2cccc3c2C(=O)c2ccccc2-3)cc1C(=O)O	=	5.22
COC(=O)c1cccc(NC(=O)c2cccc(-c3ccccc3)c2)c1	=	4.72
O=C(NO)c1cccc(NC(=O)c2cccc3c2C(=O)c2ccccc2-3)c1	=	4.89
O=C(O)c1cccc(NC(=O)c2cccc3c2C(=O)c2ccccc2-3)c1Cl	=	5.04
O=C(Nc1cccc(OC(F)(F)F)c1)c1cccc2c1C(=O)c1ccccc1-2	=	5.17
Nc1ccc(NC(=O)c2cccc3c2C(=O)c2ccccc2-3)c(C(=O)O)c1	=	4.10
COC(=O)c1cc(NC(=O)c2cccc3c2C(=O)c2ccccc2-3)ccc1O	<	4.00
